Origin of values: patent US4578489A

- System: Enteromorpha intestinalis
- TEST NAME: Action against Enteromorpha intestinalis: inhibitory concentration (MIC)
- Format: in vivo
- RUN PARAMETERS: seawater containing biocide for entire test; concentration tested 0.5 mg/liter
- Procedure: The action against the green alga Enteromorpha, which is the most important in seawter fouling, is investigated in sterile-filtered seawater containing an Erd-Schreiber solution. This solution is composed of a nutrient extract, phosphate and nitrate. The incubation of Enteromorpha intestinalis is carried out in a light thermostat at 18° C. under an alternation of 14 hours of light and 10 hours of darkness. […]
What MIC was measured for each of the following?
Report only the number, with the unit mg/L understood.

**Query** Look up MIC for this molecule: CCCCCCCCCCCCCC[N+](C)(C)Cc1ccccc1.CCC[CH2][Sn-]([Cl])([Cl])([CH2]CCC)[CH2]CCC
**Result** 0.5

**Query** Consider the molecule shown here: CCCCCCCCCCCCCCCC[n+]1ccccc1.CCC[CH2][Sn-]([Cl])([Cl])([CH2]CCC)[CH2]CCC What is its recorded MIC?
**Result** 0.5

**Query** Entry CCCCCCCCCC[N+](C)(C)CCCCCCCCCC.CCC[CH2][Sn-]([Cl])([Cl])([CH2]CCC)[CH2]CCC has what MIC?
**Result** 0.5

**Query** Item under review: CCCCCCCCCCCC[N+](CCO)(CCO)Cc1ccccc1.CCC[CH2][Sn-]([Cl])([Cl])([CH2]CCC)[CH2]CCC . Reported MIC?
**Result** 0.5

**Query** Record request: MIC value, item CCCCCCCCCCCC[n+]1ccccc1.CCC[CH2][Sn-]([Cl])([Cl])([CH2]CCC)[CH2]CCC
**Result** 0.5

---

- Tested on: mixed culture of bacteria
- Format: cell-based
- Parameters: key: +: growth, no destruction; (+): growth less than that of control (>10 colonies), slight destruction; (-): slight growth (1-10 colonies); -: no growth, destruction
- RUN PARAMETERS: 30 mg/l; culture diluted 1/10000 in Tyrode
MEASURE: Growth (destruction of a mixed culture of bacteria)

// below: answered compounds
{"SMI": "CCCCCCCCCC[N+](C)(C)CCCCCCCCCC.CCC[CH2][Sn-]([Cl])([Cl])([CH2]CCC)[CH2]CCC", "OBSERVED VALUE": "-"}
{"SMI": "CCCCCCCCCCCCCCCCCC[N+](C)(C)C.CCC[CH2][Sn-]([Cl])([Cl])([CH2]CCC)[CH2]CCC", "OBSERVED VALUE": "-"}
{"SMI": "CCCCCCCCCCCCCCCC[N+](C)(C)C.CCC[CH2][Sn-]([Cl])([Cl])([CH2]CCC)[CH2]CCC", "OBSERVED VALUE": "-"}
{"SMI": "CCCCCCCCCCCCCC[N+](C)(C)Cc1ccccc1.CCC[CH2][Sn-]([Cl])([Cl])([CH2]CCC)[CH2]CCC", "OBSERVED VALUE": "-"}
{"SMI": "CCCCCCCCCCCC[n+]1ccccc1.CCC[CH2][Sn-]([Cl])([Cl])([CH2]CCC)[CH2]CCC", "OBSERVED VALUE": "+"}

**Query** Param item = CCCCCCCCCCCCCC[N+](CCO)(CCO)Cc1ccccc1.CCC[CH2][Sn-]([Cl])([Cl])([CH2]CCC)[CH2]CCC ; retrieve measured Growth (destruction of a mixed culture of bacteria).
**Result** +

**Query** So what does the record say about Growth (destruction of a mixed culture of bacteria) for CCCCCCCCCCCC[N+](CCO)(CCO)Cc1ccccc1.CCC[CH2][Sn-]([Cl])([Cl])([CH2]CCC)[CH2]CCC ?
**Result** +
